Items are presented alongside their recorded Peak stimulatory activity relative to 224F3.
biological target: human plasma-derived FIXa (Haematologic Technologies Inc) (human, UniProt P00740 47-191; P00740 227-461); assay: cell-based or functional assay
Sequence (P00740 47-191, chain 1 of 2): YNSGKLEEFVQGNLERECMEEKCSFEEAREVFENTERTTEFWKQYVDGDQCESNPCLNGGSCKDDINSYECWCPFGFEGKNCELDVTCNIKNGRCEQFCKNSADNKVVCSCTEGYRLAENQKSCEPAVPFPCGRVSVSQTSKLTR
Sequence (P00740 227-461, chain 2 of 2): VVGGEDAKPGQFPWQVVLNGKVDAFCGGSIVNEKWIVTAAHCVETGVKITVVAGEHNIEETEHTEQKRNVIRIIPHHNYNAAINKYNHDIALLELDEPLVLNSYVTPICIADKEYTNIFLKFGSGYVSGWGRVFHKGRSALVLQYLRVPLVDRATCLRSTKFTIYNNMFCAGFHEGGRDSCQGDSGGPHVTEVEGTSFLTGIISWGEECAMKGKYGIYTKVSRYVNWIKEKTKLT

binder: mAb1-4624 (antibody, V domains shown) VH: EVQLVQSGAEVKKPGESLRISCKGSGYRFTSYWIGWVRQMPGKGLEWMGMIDPTDSYTDYGPSFRGHVTISADKSISTAYLQWSSLKASDTAMYYCARVRIMSGAFDIWGQGTMVTVSS VL: DIVMTQSPLSLPVTPGEPASISCRSSQSLLHSTWYNYLNWYLQKPGQSPQLLIYLGSNRASGVPDRFSGSGSGTDFTLKISRVEAEDVGVYYCMQVLHIPYTFGQGTKLEIK
measurement: 50.1 fold relative to 224F3
//
binder: mAb1-4763 (antibody, V domains shown) VH: EVQLVESGGGLVQPGRSLRLSCAASGFTFGDYAMHWVRQAPGKGLEWVSGISWNSGSIGYAKSVKGRFTISRDNAKNSLYLQMNSLRAEDTALYYCAKGQYDEDAGMDVWGQGTTVTVSS VL: DIQMTQSPSSLSASVGDRVTITCRASQWISSYLNWYQQKPGKAPKLLIYAASSLPSGVPSRFSGSGSGTDFTLTISSLQPEDFATYYCQQGYPTWTFGGGTKVEIK
measurement: 20 fold relative to 224F3

Please examine the following record next.
Q: Could you please provide reported Peak stimulatory activity relative to 224F3 for mAb1-4857 (antibody, V domains shown) VH: EVQLVESGGGLVQPGRSLKLSCAASGFTFDDYAMHWVRQVPGKGLEWVSGISWRGDIIGYVDSVKGRFTISRDNAKNSLYLQLNSLRAEDTALYYCVKSYGSGSFYNAFDSWGQGTLVTVSS VL: DIQMTQSPSTLSASAGDRVTITCRASQSISSWLAWYQQKPGKAPKFLIYKASRLERGVPSRFSGSGSGTEFSLTISSLQPDDFATYYCLEYSSYIRTFGQGTKVEIK ? Thanks!
A: 66.5 fold relative to 224F3

Measured values drawn from patent US20250011468A1 for this set.
